Test system: MOLT-4 leukemia
Assay: NCI tumour cell line growth inhibition, 48 h; in the data active = GI50 below about 0.43 µM; inactive = the rest
Can you answer with just one of these options? Y = active, N = inactive

# compound, system, label class
measured = [
    ("COc1ccc(C2CC(=O)c3c(O)c(OC)c(OC)c(OC)c3O2)c(O)c1 (stereo not given)", "MOLT-4 leukemia", "N"),
    ("COc1cccc(N=Cc2c3ccccc3c(=O)n3c2oc2ccccc23)c1", "MOLT-4 leukemia", "N"),
    ("COc1ccc(-c2cc3c(nn2)-c2ccccc2C3=O)cc1", "MOLT-4 leukemia", "N"),
    ("COc1ccc(-c2nc(-c3nc4ccc(C)cc4[nH]3)c3ccccn23)cc1", "MOLT-4 leukemia", "N"),
    ("CCCCCCCCCCC(O)C1CCC(C2CCC(C(O)CCCCC(O)CCCCCC(O)CC3=CC(C)OC3=O)O2)O1 (stereo not given)", "MOLT-4 leukemia", "N"),
]

Could you please tell me the result logged for COc1cc([C@@H]2c3cc4c(cc3C(O[C@@H]3O[C@@H]5CO[C@@H](c6cccs6)OC5[C@H](O)[C@H]3O)C3COC(=O)[C@@H]32)OCO4)cc(OC)c1O (stereo not given in full) in this assay? Y

Could you please tell me the result logged for Nc1nccc(-c2c(-c3ccc(F)cc3)ncn2CCCN2CCOCC2)n1 in this assay? N

----------
Test system: SW-620 colon
Experiment: NCI tumour cell line growth inhibition, 48 h; in the data active = GI50 below about 0.43 µM; inactive = the rest
Can you answer with just one of these options? y (active), n (inactive)

For orientation, consider the following solved cases.
# molecule, label class
rows = [
    ("C[C@]12CC[C@@H]3c4ccc(O)cc4C[C@@H](CCCCCCCCCS(=O)CCCC(F)(F)C(F)(F)F)[C@H]3[C@@H]1CC[C@@H]2O (stereo not given in full)", "n"),
    ("CC(C)=[CH][Sb]([Br])([CH]=C(C)C)([CH]=C(C)C)[CH]=C(C)C", "n"),
    ("COC(=O)[C@]12CCC(C)(C)C[C@H]1C1=CC[C@@H]3[C@@]4(C)C/C(=C/c5cccnc5)C(=O)C(C)(C)[C@@H]4CC[C@@]3(C)[C@]1(C)CC2", "n"),
]

Could you please tell me the result logged for Cc1cc(C)cc(Nc2cc(C)nc3nc(C(F)(F)F)nn23)c1 in this assay? n

Could you please tell me the result logged for COc1cc2c3c(n(CCCBr)c(=O)c2cc1OC)-c1ccc(NC(C)=O)cc1C3=O in this assay? n

Could you please tell me the result logged for CCCNC(=S)N/N=C(\C)c1ccccn1 in this assay? y

Could you please tell me the result logged for COc1cccc(NCc2nnc(Nc3ccc(Cl)cc3)c3ccccc23)c1 in this assay? n

Could you please tell me the result logged for CC12CCCC(CC(=O)c3[nH]c4ccccc4c31)C2 (stereo not given) in this assay? y

Could you please tell me the result logged for COc1cc(Cn2c(-c3ccccc3)cc3c2-c2oncc2CC3)cc(OC)c1OC in this assay? y

Could you please tell me the result logged for CCCCNC(=O)NS(=O)(=O)c1ccc(N2N=C(c3ccc(C)cc3C)CC2c2ccc(N(C)C)cc2)cc1 (stereo not given) in this assay? n

----------
Catalogue of GI50 values
Tested on: HT29 colon
Experiment: NCI tumour cell line growth inhibition, 48 h

# compound, attribute measured, measured value
rows = [
    ("COc1ccc(-c2cc3c(nn2)-c2ccccc2C3=O)cc1", "GI50", "> 100 µM"),
    ("COc1ccc(S(=O)(=O)N(Cc2ccc3c(n2)C=CC(C)(C)O3)C2CCC2)cc1OC", "GI50", "0.021 µM"),
]

Specify the recorded GI50 for COc1ccc2cc(C(=O)/C=C/c3cccc(OC)c3OC)ccc2c1 , system: HT29 colon. 4.07 µM

Specify the recorded GI50 for COc1cc2c(/C=C3/C(=O)Nc4cccc(Cl)c43)c(Cl)n(Cc3ccccc3)c2cc1C , system: HT29 colon. 4.99 µM

Specify the recorded GI50 for CCCCNC(=O)NS(=O)(=O)c1ccc(N2N=C(c3ccc(C)cc3C)CC2c2ccc(N(C)C)cc2)cc1 (configuration not stated) , system: HT29 colon. 4.2 µM

Specify the recorded GI50 for CC(C)(C)OC(=O)N(CCCN(CCn1c2c(c3ccccc3c1=O)C(=O)c1ccccc1-2)C(=O)OC(C)(C)C)CCn1c2c(c3ccccc3c1=O)C(=O)c1ccccc1-2 , system: HT29 colon. > 50 µM

Specify the recorded GI50 for COc1cc([C@@H]2c3cc4c(cc3C(O[C@@H]3O[C@@H]5CO[C@@H](c6cccs6)OC5[C@H](O)[C@H]3O)C3COC(=O)[C@@H]32)OCO4)cc(OC)c1O (some centres not stated) , system: HT29 colon. 0.123 µM
